Entries and their cytotoxicity at 10 µM values follow.
- test-summary: Toxicity liver stage against HepG2, at 10uM
- Assay type: cell-based
- Parameters: test concentration 10 uM, cell line HepG2-A16-CD81EGFP
- condition-context: human, HepG2-A16-CD81EGFP cells; read-out: INHIBITION

molecule: CN(Cc1nnc(C2CC2)o1)C1CCN(CCCc2cnn(C)c2)C1 (configuration not stated)
cytotoxicity at 10 µM: 5.27%

Request the reported cytotoxicity at 10 µM associated with CS(=O)(=O)N1CCOCC2(CN(Cc3ccco3)CCO2)C1 (configuration not stated)
-5.04%

Which cytotoxicity at 10 µM is reported for this molecule? `O=C(c1nnn(-c2ccc(F)cc2)n1)N(CCO)Cc1ccccc1`
1.56%

Suppose we examine the molecule CC1=Nc2c(c(=O)[nH]n2C(C)C)C(c2ccc(F)c(F)c2)S1 (configuration not stated) ; what cytotoxicity at 10 µM value has been reported?
-5%

For the molecule shown here, COCCCN1CC2(CCCCN2C(C)=O)CC1=O (configuration not stated) , give the reported cytotoxicity at 10 µM.
16.3%

Form field: reported cytotoxicity at 10 µM of CC(NC(=O)NCc1cc(Br)cs1)c1ccccn1 (configuration not stated)
-17.6%

What value of cytotoxicity at 10 µM has been reported for the following molecule? O=C(NCC(O)Cc1ccccc1)c1ccc2[nH]c(=O)[nH]c2c1 (configuration not stated)
4.14%

For the molecule shown here, COc1ccc(CNC(=O)CCN2CCOC(C(F)(F)F)C2)cc1 (configuration not stated) , give the reported cytotoxicity at 10 µM.
4.3%

----------
- test-summary: Toxicity liver stage against HepG2, at 10uM
- Assay type: cell-based
- Set-up: test concentration 10 uM, cell line HepG2-A16-CD81EGFP
- condition-context: human, HepG2-A16-CD81EGFP cells; read-out: INHIBITION
# cytotoxicity at 10 µM annotations
Could you kindly put the unit after your number?

// known answers, use as guide
compound: CN1C(=O)COc2cc(NC(=O)CCc3nc4cccnc4[nH]3)ccc21
cytotoxicity at 10 µM: -4.13%
--
compound: CS(=O)(=O)Cc1ccc(Cl)cc1NCc1cccc(F)c1F
cytotoxicity at 10 µM: 9.2%

# input compound: `Cc1oc(C(=O)O)cc1S(=O)(=O)Nc1cc(Br)ccc1Cl` ; wanted: its cytotoxicity at 10 µM
0.386%

May I ask what cytotoxicity at 10 µM has been recorded for COCC(=O)N1CCC2(CC1)CC(CC(=O)NC1CC1)c1ccccc12 (stereo unspecified) ?
0.873%

Item under review: CCCS(=O)(=O)N1CCC2(CC1)CN(CC1CCOC1)c1ccccc12 (stereo unspecified) . Reported cytotoxicity at 10 µM?
-101%

Recorded cytotoxicity at 10 µM for `COc1cccn(CC(=O)N2CCC3(CCNCC3)C2)c1=O` , please?
-11.4%

Recorded cytotoxicity at 10 µM for `CCCOCCn1ncc(N2CCCC2)cc1=O` , please?
-10.7%

----------
- test-summary: Toxicity liver stage against HepG2, at 10uM
- Type: cell-based
- Set-up: test concentration 10 uM, cell line HepG2-A16-CD81EGFP
- condition-context: human, HepG2-A16-CD81EGFP cells; read-out: INHIBITION
readout: cytotoxicity at 10 µM (%)
Could you give me the number in %? Just the number is fine.

molecule: CC(C)SCC(=O)N1CCCn2nc(C(=O)Nc3ccccc3)cc2C1
reading-unit: %
cytotoxicity at 10 µM: 3.19

cytotoxicity at 10 µM lookup needed for `Cc1ccccc1CN1CCN(C(=O)c2ccn(C(C)(C)C)c2)CC1` , thanks.
-0.585

// query cytotoxicity at 10 µM value for entry CCC1CCCCN1C(=O)Cn1cnc(C#N)n1 (stereo not given)
-22.1
